Values from patent US10323018B2

Give viability at 1.667 µM for every item shown.
test system: PC3 cells; experiment: PC3 growth inhibition (Cell-titer glo, 72 hours); assay type: cell-based; details: Homo sapiens, PC-3, 72 h, read-out: Percent Viability, PC3 cells, compound concentration 1.667 μM, 72 hours
One number for each entry, in %.

Some compounds with known viability at 1.667 µM results, for comparison:
CCOc1cc(-c2ccc(F)cc2)nc2cc(C(=O)NCC3CC3c3ncc[nH]3)ccc12 (single isomer, unassigned) [Compound I-50]; 3
CCOc1cc(-c2cc(Cl)ccc2F)nc2cc(C(=O)NCCCc3ncc[nH]3)ccc12 [Compound I-11]; 1
CCOc1cc(-c2ccc(=O)n(C)c2)nc2cc(C(=O)NCCCc3nnc[nH]3)ccc12 [Compound I-122]; 2

# input Annotate the compound CCOc1cc(-c2ccc(C)nc2OC)nc2cc(C(=O)NCCCc3[nH]nnc3C)ccc12 [Compound I-94] with its measured viability at 1.667 µM.
# output 1

----------
test system: PC3 cells; assay: PC3 growth inhibition (Cell-titer glo, 72 hours); type: cell-based; conditions: Homo sapiens, PC-3, 72 h, read-out: Percent Viability, PC3 cells, compound concentration 1.667 μM, 72 hours
Metric name: viability at 1.667 µM (%)
One number for each entry, in %.

CCOc1cc(-c2cc(OC)ncc2Cl)nc2cc(C(=O)NCCCc3nnc[nH]3)ccc12 [Compound I-164]; 2
CCOc1nc(-c2ccc(F)cc2)nc2cc(C(=O)NCc3ccc4nccn4c3)ccc12 [Compound I-34]; 1
CCOc1cc(-c2ccc(C)nc2OC)nc2cc(C(=O)NCCCc3cnn[nH]3)ccc12 [Compound I-103]; 2
CCOc1cc(-c2ccc(F)cc2)nc2cc(C(=O)NCC(F)(F)Cc3nnc[nH]3)ccc12 [Compound I-91]; 2
CCOc1cc(-c2cccnc2OC)nc2cc(C(=O)NCCc3c[nH]nc3C)ccc12 [Compound I-144]; 2

# batch size: 3; output viability at 1.667 µM per entry
1. CCOc1cc(-c2ccc(F)cc2)nc2cc(C(=O)NCc3ccn4ncnc4c3)ccc12 [Compound I-130]
2. O=C(NCCCc1ncc[nH]1)c1ccc2c(-c3ccc(F)cc3)nc(-c3ccc(Cl)cc3)nc2c1 [Compound I-57]
3. CCOc1cc(-c2ccnc(OC)c2)nc2cc(C(=O)NCc3nc4cnccc4[nH]3)ccc12 [Compound I-194]

# output
1. 2
2. 1
3. 3

----------
test system: PC3 cells; assay: PC3 growth inhibition (Cell-titer glo, 72 hours); format: cell-based; conditions: Homo sapiens, PC-3, 72 h, read-out: Percent Viability, PC3 cells, compound concentration 1.667 μM, 72 hours
Metric name: viability at 1.667 µM
Include the unit right after the number.

Provide the reported viability at 1.667 µM of each entry below, same order.
1. CCOc1cc(-c2cnc(OC)c(F)c2)nc2cc(C(=O)NCCCc3nnc[nH]3)ccc12
2. CCOc1cc(-c2ccn(C)c(=O)c2)nc2cc(C(=O)NCCCc3nnc[nH]3)ccc12
3. CCc1nc(-c2ccc(Cl)cc2)nc2cc(C(=O)NCCCc3ncc[nH]3)ccc12
4. CCOc1cc(-c2ccc(C)nc2OC)nc2cc(C(=O)NCCc3[nH]nnc3C)ccc12
5. CCOc1cc(-c2cncc(C)c2)nc2cc(C(=O)NCCCc3nnc[nH]3)ccc12
6. COCCOc1cc(-c2ccnc(C)c2)nc2cc(C(=O)NCc3ccn4ncnc4c3)ccc12
7. CCOc1cc(-c2cccc(OC(F)(F)F)c2)nc2cc(C(=O)NCCCc3nnc[nH]3)ccc12

# output
["2%", "2%", "1%", "2%", "2%", "4%", "1%"]

# input Specify measured viability at 1.667 µM for Cc1cc(-c2nc(-c3ccc(F)cc3)nc3cc(C(=O)NCCCc4nnc[nH]4)ccc23)ccn1 .
# output 2%
